Test system: HeLa
experimentSummary: In vitro anticellular activity tested against HeLa S3 cells
Assay type: functional, cell-based
conditionLabel: Homo sapiens
Listed below: IC50 values for each entry.

{"compound": "CO[C@@]12[C@H](COC(N)=O)C3=C(C(=O)C(COC(C)C)=C(N)C3=O)N1C[C@@H]1N[C@@H]12", "studySystem": "HeLa", "modifier": "=", "IC50 / nM": 2500}
{"compound": "CO[C@@]12[C@H](COC(N)=O)C3=C(C(=O)C4=C(NCCSC4)C3=O)N1C[C@@H]1N[C@@H]12", "studySystem": "HeLa", "modifier": "=", "IC50 / nM": 1300}
{"compound": "CO[C@@]12[C@H](COC(N)=O)C3=C(C(=O)C(CSc4ccc(Cl)cc4)=C(N)C3=O)N1C[C@@H]1N[C@@H]12", "studySystem": "HeLa", "modifier": "=", "IC50 / nM": 53000}
{"compound": "COc1ccccc1SCC1=C(N)C(=O)C2=C(C1=O)N1C[C@@H]3N[C@@H]3[C@]1(OC)[C@@H]2COC(N)=O", "studySystem": "HeLa", "modifier": "=", "IC50 / nM": 2300}
{"compound": "CO[C@@]12[C@H](COC(N)=O)C3=C(C(=O)C(CSc4cccs4)=C(N)C3=O)N1C[C@@H]1N[C@@H]12", "studySystem": "HeLa", "modifier": "=", "IC50 / nM": 4900}
{"compound": "CO[C@@]12[C@H](COC(N)=O)C3=C(C(=O)C(CSC4OC(CO)C(O)C(O)C4O)=C(N)C3=O)N1C[C@@H]1N[C@@H]12 (some centres undefined)", "studySystem": "HeLa", "modifier": "=", "IC50 / nM": 82000}
{"compound": "CO[C@@]12[C@H](COC(N)=O)C3=C(C(=O)C(CS(=O)(=O)C(C)C)=C(N)C3=O)N1C[C@@H]1N[C@@H]12", "studySystem": "HeLa", "modifier": ">", "IC50 / nM": 10000}
{"compound": "COC1=C(C)C(=O)C2=C(C1=O)[C@@H](COC(N)=O)[C@@]1(OC)[C@H]3N[C@H]3CN21", "studySystem": "HeLa", "modifier": "=", "IC50 / nM": 2.4}
{"compound": "CO[C@@]12[C@H](COC(N)=O)C3=C(C(=O)C(CSc4nc5ccccc5o4)=C(N)C3=O)N1C[C@@H]1N[C@@H]12", "studySystem": "HeLa", "modifier": "=", "IC50 / nM": 5100}
{"compound": "CO[C@@]12[C@H](COC(N)=O)C3=C(C(=O)C(CSc4ccc([N+](=O)[O-])cc4)=C(N)C3=O)N1C[C@@H]1N[C@@H]12", "studySystem": "HeLa", "modifier": "=", "IC50 / nM": 780}
{"compound": "CO[C@@]12[C@H](COC(N)=O)C3=C(C(=O)C(CSc4ccccc4O)=C(N)C3=O)N1C[C@@H]1N[C@@H]12", "studySystem": "HeLa", "modifier": "=", "IC50 / nM": 2200}
{"compound": "CO[C@@]12[C@H](COC(N)=O)C3=C(C(=O)C(CSc4nc(C)cc(C)n4)=C(N)C3=O)N1C[C@@H]1N[C@@H]12", "studySystem": "HeLa", "modifier": "=", "IC50 / nM": 1100}
{"compound": "COCC1=C(N)C(=O)C2=C(C1=O)N1C[C@H]3[C@H](N3C)[C@]1(O)[C@H]2COC(N)=O (some centres undefined)", "studySystem": "HeLa", "modifier": ">", "IC50 / nM": 82000}
{"compound": "C=CCOCC1=C(N)C(=O)C2=C(C1=O)N1C[C@@H]3N[C@@H]3[C@]1(OC)[C@@H]2COC(N)=O", "studySystem": "HeLa", "modifier": "=", "IC50 / nM": 5500}
{"compound": "CO[C@@]12[C@H](COC(N)=O)C3=C(C(=O)C(COCc4ccccc4)=C(N)C3=O)N1C[C@@H]1N[C@@H]12", "studySystem": "HeLa", "modifier": "=", "IC50 / nM": 5500}
{"compound": "CO[C@@]12[C@H](COC(N)=O)C3=C(C(=O)C(CSc4ccccc4Br)=C(N)C3=O)N1C[C@@H]1N[C@@H]12", "studySystem": "HeLa", "modifier": "=", "IC50 / nM": 48000}
{"compound": "CO[C@@]12[C@H](COC(N)=O)C3=C(C(=O)C(CSc4ncccc4O)=C(N)C3=O)N1C[C@@H]1N[C@@H]12", "studySystem": "HeLa", "modifier": "=", "IC50 / nM": 190}
{"compound": "COCC1=C(N)C(=O)C2=C(C1=O)N1CC3NC3[C@]1(OC)[C@@H]2COC(N)=O (some centres undefined)", "studySystem": "HeLa", "modifier": "=", "IC50 / nM": 2600}
{"compound": "CO[C@@]12[C@H](COC(N)=O)C3=C(C(=O)C(CSc4nc5ccccc5s4)=C(N)C3=O)N1C[C@@H]1N[C@@H]12", "studySystem": "HeLa", "modifier": "=", "IC50 / nM": 700}
{"compound": "CO[C@@]12[C@H](COC(N)=O)C3=C(C(=O)C(CSCCO)=C(N)C3=O)N1C[C@@H]1N[C@@H]12", "studySystem": "HeLa", "modifier": ">", "IC50 / nM": 100000}
{"compound": "CO[C@@]12[C@H](COC(N)=O)C3=C(C(=O)C(CSC4=NCCS4)=C(N)C3=O)N1C[C@@H]1N[C@@H]12", "studySystem": "HeLa", "modifier": "=", "IC50 / nM": 820}
{"compound": "CCCCCCCCCCCCSCC1=C(N)C(=O)C2=C(C1=O)N1C[C@@H]3N[C@@H]3[C@]1(OC)[C@@H]2COC(N)=O", "studySystem": "HeLa", "modifier": "=", "IC50 / nM": 5500}
{"compound": "CO[C@@]12[C@H](COC(N)=O)C3=C(C(=O)C(CSCC(O)CO)=C(N)C3=O)N1C[C@@H]1N[C@@H]12 (some centres undefined)", "studySystem": "HeLa", "modifier": ">", "IC50 / nM": 100000}
{"compound": "CCSCC1=C(N)C(=O)C2=C(C1=O)N1C[C@@H]3N[C@@H]3[C@]1(OC)[C@@H]2COC(N)=O", "studySystem": "HeLa", "modifier": "=", "IC50 / nM": 2200}
{"compound": "COCC1=C(N)C(=O)C2=C(C1=O)N1CC3C(N3C)[C@]1(OC)[C@@H]2COC(N)=O (some centres undefined)", "studySystem": "HeLa", "modifier": ">", "IC50 / nM": 100000}
{"compound": "CO[C@@]12[C@H](COC(N)=O)C3=C(C(=O)C(CSCc4ccccc4)=C(N)C3=O)N1C[C@@H]1N[C@@H]12", "studySystem": "HeLa", "modifier": "=", "IC50 / nM": 2200}
{"compound": "CO[C@@]12[C@H](COC(N)=O)C3=C(C(=O)C(CSc4ccc(O)cc4)=C(N)C3=O)N1C[C@@H]1N[C@@H]12", "studySystem": "HeLa", "modifier": "=", "IC50 / nM": 116000}
{"compound": "CO[C@@]12[C@H](COC(N)=O)C3=C(C(=O)C(CSc4nc[nH]n4)=C(N)C3=O)N1C[C@@H]1N[C@@H]12", "studySystem": "HeLa", "modifier": "=", "IC50 / nM": 6800}
{"compound": "COCC1=C(OC)C(=O)C2=C(C1=O)N1CC3NC3[C@]1(OC)[C@@H]2COC(N)=O (some centres undefined)", "studySystem": "HeLa", "modifier": "=", "IC50 / nM": 120}
